Target: T1, Extracellular domain (ECD) of the canine IL-4 receptor alpha-V5 epitope-AviTag-His Tag (canine)
T1 construct: monomeric form isolated by size exclusion; also called canine IL-4RA-V5-Avi-His; canine IL-4RA
T1 chain: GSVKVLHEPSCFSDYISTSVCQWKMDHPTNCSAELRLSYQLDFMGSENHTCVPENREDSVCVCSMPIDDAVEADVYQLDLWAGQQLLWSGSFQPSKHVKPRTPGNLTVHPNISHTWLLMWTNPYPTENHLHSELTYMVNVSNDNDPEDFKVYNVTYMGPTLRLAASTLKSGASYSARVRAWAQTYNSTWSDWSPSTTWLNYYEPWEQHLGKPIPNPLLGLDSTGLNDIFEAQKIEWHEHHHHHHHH
Experiment: SPR, Fab-SASA captured on BSA;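 further: biacore T200 SPR, Fab-SASA variants from E. coli conditioned medium captured on BSA-coated CM5 chip, canine IL-4RA injected 120 s then 420 s dissociation, 1:1 model fit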
assay-readout: Ratio WT-kd/clone-kd
# answer = number (no unit)

Reference set, count: 2
[
  {
    "binder": "TB640_005 Fab-SASA VH-V114K (Fab, V domains shown, not shown: SASA tag then His-tag) VH: EVQLVESGGDLVKPGGSLRLSCVASGFTFRDYAMTWVRQAPGKGLQWVSLISGSGGKTYYADAVKGRFTISRDNAKNTLYLQMNSLRAEDTAVYYCAVDRLTKTIRPQYYGLWKWGQGTLVTVSS VL: DIVMTQTPLSLSVSPGETASISCRSSQSLLYSIGYNYLDWYLQKPGQSPQGLIYLGSKRASGVPDRFSGSGSGTDFTLRISRVEANDTGVYYCMQGLQSPLTFGQGTKLEIKR",
    "Ratio WT-kd/clone-kd": 1.33
  },
  {
    "binder": "TB640_005 Fab-SASA VL-Q27E (Fab, V domains shown, not shown: SASA tag then His-tag) VH: EVQLVESGGDLVKPGGSLRLSCVASGFTFRDYAMTWVRQAPGKGLQWVSLISGSGGKTYYADAVKGRFTISRDNAKNTLYLQMNSLRAEDTAVYYCAVDRLTKTIRPQYYGLWVWGQGTLVTVSS VL: DIVMTQTPLSLSVSPGETASISCRSSESLLYSIGYNYLDWYLQKPGQSPQGLIYLGSKRASGVPDRFSGSGSGTDFTLRISRVEANDTGVYYCMQGLQSPLTFGQGTKLEIKR",
    "Ratio WT-kd/clone-kd": 1.09
  }
]

q: Using the record for TB640_005 Fab-SASA VH-S52N (Fab, V domains shown, not shown: SASA tag then His-tag) VH: EVQLVESGGDLVKPGGSLRLSCVASGFTFRDYAMTWVRQAPGKGLQWVSLINGSGGKTYYADAVKGRFTISRDNAKNTLYLQMNSLRAEDTAVYYCAVDRLTKTIRPQYYGLWVWGQGTLVTVSS VL: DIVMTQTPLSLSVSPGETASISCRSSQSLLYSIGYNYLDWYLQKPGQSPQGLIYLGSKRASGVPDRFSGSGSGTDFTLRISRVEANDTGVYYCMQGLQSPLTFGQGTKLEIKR , report its Ratio WT-kd/clone-kd.
a: 7.88
